test: yeast display, Sf9 membrane polyspecificity reagent, FACS + sequencing; frameworks hold sequencing errors
measured attribute: polyreactivity (PSR sort gate)

>  <residues>
QVQLVESGGGLVQAGGSLRLSCAGSGSIFGLYAMGWYRQEPGKERELVAAINQSGGSTSYADSVKGRFTISRDNAKNTVYFQMNSLKPEDTAVYYCNRVRLNTEGFDYWGQGTQVTVSS

>  <polyreactivity (PSR sort gate)>
low polyreactivity

$$$$
>  <residues>
QVQLVESGGGLVLAGRSLRLICAASGSIFVYNAMGWYRQAPGKERELVAAISWSGGRTYYADSVKGRFTISRDNAKNTVYLQMNSLKPEDTAVYYCAALYTLRGYYYGTEYDYWGQGTQVTVSS

>  <polyreactivity (PSR sort gate)>
high polyreactivity

$$$$
>  <residues>
QVQLVESGGGLVQAGGSLRLSCAASGSTFVGYAMGWYRQAPGKERELVAAISGGDSTYYADSVKGRFTLSRDNAQNTVYLQKNSLNPEDTALYYCAVGWTFDRRGYGYWGQGTQVTVSS

>  <polyreactivity (PSR sort gate)>
low polyreactivity

$$$$
>  <residues>
QDQLVESGGGLVQAGGSHRLSCAASGSTFGVNDMGWYRQAPGKERELVARITGGGSTYYADSVKGRFTISRDNAKNTVYLQMNSLKPEDTAVYYCNAAFWAPQATGYYYWGQGTQVTVSS

>  <polyreactivity (PSR sort gate)>
low polyreactivity

$$$$
>  <residues>
QVQLVESGGGLVQAGGSLRLSCAASGSTSYNYVMGWYRQAPGKERELVAAISFTDGTTYYADSVKGRFTISRDNAKNTVYLQMNSLKPEDTAVYYCAAGYTGYTYTEMDYWGQVTQVTVSS

>  <polyreactivity (PSR sort gate)>
low polyreactivity

$$$$

Provide polyreactivity (PSR sort gate) for all items below, preserving their order.
1. QVQLVESGGGLVQAGGSLRLSCADSGYIYPYYAMRWYRQAPGKERELVATITSRGGSTYYADSVKRRFTISRDIAKNTVYLQMNSLKPEDTAVYYCAIEYRYYRRRYDYCGQGTQVTVSS
2. QVQLVESGGGLVQAGGSLRLSCAASGSILSTYAMGWYRQAPGKERELVASISSNAGSTYYADSVKGRFTISRDNAKNTVYLQMNSLKPEDTAVYYCNKDGKYHRVLYDYWGQGTQVTVSS
3. QVQLVESGGGLVQAGGSLRLSCAASGRTFTRYTMGWYRQAPGKERELVAAITRGGSTYADSVKGRFTISRDNAKNTVYLQMNSMKPEDTAVYYCAAYWGFYPWRAYPYDYWGQGTQVTVSS
4. QGQLVESGGGLVQAGGSLRLSCAASGFTFQYYAMGWSRQAPGKERELVAAISWSGGRTYYADSVKGRFTISRDNAKNTESLQMNSLKPEDTAVYYCAASYIVYPARYEDEGDYWGQGTQVTVSS
5. QVQLVESGGGLVQAGGSLRLSCAASGRIFGDNAMGWYRQAPGKEREFVAAISWSGGTTYYADSVKGRFTISRDNAKNTVYLQMNSLKPEDTAVYYCAADYTRGYDYWGQGTQVTVSS
6. QVQLEESGGGLVQAGGSLRLSCAASGSTFEGYAMGWYRQAPGKERELVAVISSGSITKYADSVKGRFTISRDNAKNTVFLQINSLKPEDTAVYYCARKGGIIFASYLLGGYWGQGTQVTVSS
7. QVKLVESGGGLVQAGGSLRLSCAASGRISFYYAMGWYRQAPGKERELVATISSSGGSTHYADSVKGRFTISRDNAKNTVYLQMNSLKPEDTAVYYCARDDSERIWLEQSGYWGQGTQVTVSS

Reply |
["high polyreactivity", "low polyreactivity", "high polyreactivity", "high polyreactivity", "low polyreactivity", "low polyreactivity", "low polyreactivity"]
